FYI, the data here is from patent US20090149482A1.

# Test system: rabbit corneal cell line (SIRC)
# measurement context: SIRC cells, 5 mM
Give percent survival for every item shown.
Answers are plain numbers, in %.

Reference set, count: 3
1. O=c1[nH]c(=O)n([C@H]2C[C@H](O)[C@@H](CO)O2)cc1C(F)(F)F [TFT, trifluorothymidine, reference compound] :: 0.01
2. CC(C)C(N)C(=O)NC(C(=O)OCCOCn1cnc2c(=O)[nH]c(N)nc21)C(C)C (stereo not shown) :: 99.3
3. Nc1nc2c(ncn2COCCO)c(=O)[nH]1 :: 49.12

Sample "NCC(=O)NCC(=O)OCCOCn1cnc2c(=O)[nH]c(N)nc21" — what was its percent survival? 63.8

###

# protocol details: in vitro
# measurement context: human, CC50, HSV-2 column
property name: CC50

Sample "CC(C)[C@H](N)C(=O)OCCOCn1cnc2c(=O)[nH]c(N)nc21" — what was its CC50? > 277 µM
